# Study System: Human DYRK1A (Homo sapiens, UniProt Q13627)
# Construct: purchased Invitrogen PV3997
# Experiment Description: DYRK1A Kinase TR-FRET (IMAP-Tb) Assay
# Assay type: biochemical
# Settings: TR-FRET (IMAP-Tb); ATP 70 μM; 37° C., 60 minutes; average of multiple runs; read-out: Enzyme IC50 (μM) DYRK1A
Structures can show the parent of a compound that is named as a salt.
Recorded IC50, one value per entry.

> print(dat)
                                    compound                              study.system  test.result
 1  COc1cc2[nH]c(=O)c(C(=O)Nc3cc(C(=O)NCc4ccc(Cl)cc4)ccc3C)cc2cn1  Human DYRK1A (Homo sapiens, UniProt Q13627)      > 10 µM
 2  COC(=O)c1ccc(C)c(NC(=O)c2cc3cnc(N4CCN(C)CC4)cc3[nH]c2=O)c1  Human DYRK1A (Homo sapiens, UniProt Q13627)      0.96 µM
 3  COc1ccc2cc(C(=O)Nc3cc(C(=O)NCc4ccccc4)ccc3Cl)c(=O)[nH]c2n1  Human DYRK1A (Homo sapiens, UniProt Q13627)      0.05 µM
 4  COc1cc2[nH]c(=O)c(C(=O)Nc3cc(C(=O)NCc4ccccc4Cl)ccc3Cl)cc2cn1  Human DYRK1A (Homo sapiens, UniProt Q13627)      0.63 µM
 5  COc1ccc2cc(C(=O)Nc3cc(C(=O)NCc4cccc(Cl)c4)ccc3C)c(=O)[nH]c2n1  Human DYRK1A (Homo sapiens, UniProt Q13627)     0.123 µM
 6  COC(=O)c1ccc(Cl)c(NC(=O)c2cc3ccc(OC)nc3[nH]c2=O)c1  Human DYRK1A (Homo sapiens, UniProt Q13627)      > 10 µM
 7  COc1cc2[nH]c(=O)c(C(=O)Nc3cc(C(=O)NC(CCN)c4cccc(Cl)c4)ccc3Cl)cc2cn1 (centres unmarked) [Example 67, hydrochloride]  Human DYRK1A (Homo sapiens, UniProt Q13627)   0.00952 µM
 8  COc1ccc2cc(C(=O)Nc3cc(C(=O)NCc4ccccc4)ccc3C)c(=O)[nH]c2n1  Human DYRK1A (Homo sapiens, UniProt Q13627)      0.79 µM
 9  COc1ccc2cc(C(=O)Nc3cc(C(=O)NC(CCN)c4ccccc4)ccc3C)c(=O)[nH]c2n1 (centres unmarked)  Human DYRK1A (Homo sapiens, UniProt Q13627)    0.0162 µM
10  COc1cc2[nH]c(=O)c(C(=O)Nc3cc(C(=O)NC(CCN)c4ccccc4)ccc3Cl)cc2cn1 (centres unmarked) [Example 69, hydrochloride]  Human DYRK1A (Homo sapiens, UniProt Q13627)    0.0124 µM

Now consider a different compound.
Readout IC50 for COc1cc2[nH]c(=O)c(C(=O)Nc3cc(C(=O)NC(CN)c4cccc(Cl)c4)ccc3C)cc2cn1 (centres unmarked) [Example 57, hydrochloride] , test system Human DYRK1A (Homo sapiens, UniProt Q13627), was 0.0512 µM

Origin of measurements: patent US20120184562A1
